Sourced from paper PMC12102759

B1: NOTCH4 peptide 1606-1621 (Neurogenic locus notch homolog protein 4), 16-mer library wild type / NSP9 (ORF1ab Nsp9, residues 4141-4253) (parent)
chain 1: QGAWLGAPEPWEPLLD
chain 2: NNELSPVALRQMSCAAGTTQTACTDDNALAYYNTTKGGRFVLALLSDLQDLKWARFPKSDGTGTIYTELEPPCRFVTDTPKGPKVKYLYFIKGLNNLNRGMVLGSLAATVRLQ

- Variants of: B1
- run-parameters: with NSP9 (ORF1ab Nsp9, residues 4141-4253); bait immobilised on MaxiSorp plates (10 µg), library pre-cleared on GST, 2 h binding at 4 °C, five washes; one round per day, days 1-4; value from days 2 and 3; keep out of graded; scale: average fractional NGS count over selection days 2 and 3

{"mutant-name": "chain 1 G2Y", "screen value": 0}
{"mutant-name": "chain 1 W4F", "screen value": "7.26e-05"}
{"mutant-name": "chain 1 L15W", "screen value": "5.05e-05"}
{"mutant-name": "chain 1 L5M", "screen value": 0}
{"mutant-name": "chain 1 W11R", "screen value": "3.62e-05"}
{"mutant-name": "chain 1 P8K", "screen value": 0}
{"mutant-name": "chain 1 G6L", "screen value": 0}
{"mutant-name": "chain 1 G2W", "screen value": 0}
{"mutant-name": "chain 1 G6Y", "screen value": 0}
{"mutant-name": "chain 1 L14E", "screen value": "4.45e-05"}
{"mutant-name": "chain 1 G6F", "screen value": 0}
{"mutant-name": "chain 1 W4M", "screen value": 0}
{"mutant-name": "chain 1 L15G", "screen value": "6.9e-05"}
{"mutant-name": "chain 1 Q1G", "screen value": "5.8e-05"}
{"mutant-name": "chain 1 A3G", "screen value": 0}
{"mutant-name": "chain 1 G6S", "screen value": 0}
{"mutant-name": "chain 1 G6R", "screen value": 0}
{"mutant-name": "chain 1 L5Y", "screen value": 0}
{"mutant-name": "chain 1 E12R", "screen value": "8.31e-05"}
{"mutant-name": "chain 1 W4Q", "screen value": 0}
{"mutant-name": "chain 1 G6E", "screen value": "6.33e-05"}
{"mutant-name": "chain 1 G2T", "screen value": 0}
